EXPERIMENTAL DETAILS: Therapeutic index, ratio of CC50 for human CEmx174 cells expressing LTR-GFP to EC50 for HIV1 LAI
EXPERIMENTAL PARAMETERS: read-out: Ratio CC50/EC50
RESULT TYPE: selectivity ratio
Just the number, please, no unit after it.

Some solved entries appear below for comparison.
INSERT INTO measurements (record_smiles, quantitative_readout) VALUES
  ('O=S(=O)(c1ccccc1)c1nnn2c1nc(N1CCOCC1)c1sccc12', 2.4),
  ('COc1ccc(-c2nc3c(S(=O)(=O)c4cccc(Cl)c4)nnn3c3ccsc23)cc1', 1000),
  ('O=S(=O)(c1cccc(Cl)c1)c1nnn2c1nc(N1CCOCC1)c1sccc12', 274),
  ('O=S(=O)(c1cccc(Cl)c1)c1nnn2c1nc(-c1ccc(O)cc1)c1sccc12', 11);

Let us move to another entry and its selectivity ratio.
Sample O=C(Nc1ccc(Cl)cc1)c1nnn2c1nc(N1CCOCC1)c1sccc12 ; selectivity ratio observed: 3.5
